The measured values listed here are drawn from the supplement of paper PMC10567573.

test: protein stability index of a GFP-peptide fusion (GPS, HEK-293T) (PSI 1-6); higher = more stable; details: treatment: DMSO; c terminus: a fixed tail appended;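 further: 24-mer peptide tiles fused after GFP, lentivirally expressed, FACS-sorted into six equal bins by GFP/DsRed ratio, decoded by Illumina sequencing, PSI is the read-weighted mean bin number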
ENDPOINT: protein stability index
One number for each entry.

INSERT INTO results (primary_sequence, measured) VALUES
  ('HRRIHTGEKPYECQDCGRAFNQNS [ZNF8]', 3.75),
  ('MDPPNPEEVKTPEEEMRSHYVAQT [GAGE1]', 5.44),
  ('ATTISTSEDGSYGTDVTRCICGFT [KMT2E]', 3.46);

Hi! Can you tell me protein stability index for each of these sequences?
1. EEFISNTLFKKIQALQKEKETLAV [CCDC6]
2. FSHDLTLERKCEKRSVYIDARDEE [ZC3H15]
3. YCVPRGNRRRFRVRQPILQYRWDM [BEX1]

3.27
4.47
2.46

Hi! Can you tell me protein stability index for each of these sequences?
1. RLQVKEHQHEEIQNVRNHIHSCFS [ATL3]
2. MSQPRTPEQALDTPGDCPPGRRDE [TMEM175]
3. YLTGTINGDPESVASLHWDGGALL [ADAMTS4]
4. DFWLMVWEQKVLVIVMTTRFEEGG [PTPN9]
5. KKLEKYLQKLSALLMTADILAETG [ELOA2]

1: 3.21; 2: 5.38; 3: 2.88; 4: 2.69; 5: 2.74

Hi! Can you tell me protein stability index for each of these sequences?
1. TSGGLLSEAPNEKLFFVDTGSKEK [NOP53]
2. ARRESGGRPIKPPKKDLEDGEVPQ [BRD3]
3. ERLQAAGTDSAGPKTVPSHVFSEL [ELOA2]
4. DLDSCSRDGALLGCSLTADGLPLH [MYORG]

[4.92, 5.58, 4.06, 3.32]

Hi! Can you tell me protein stability index for each of these sequences?
1. SSAVSGVKEWFGLGGEQAEEKAFE [MIA2]
2. ILSGLDDMSIGGNLSKTQNMERFG [CDC14A]
3. YNALKLFMEMNQKLFDDCTQQFKA [PPP2R5C]
4. PGHGGIMDRFDCQYLMATFVHVYI [CDS1]
5. IIIRSEVPGIFCAGADLKERAKMS [AUH]
6. TLDLSDLEAEKLVMFQRRYYKPGL [SCD]
7. KDKLGVWVYKNKLIFFGGYGYLPE [KLHDC2]
8. CWPMMDFLRCVTAALIYFAISITA [CMTM3]

[5.09, 3.24, 2.46, 3.26, 2.36, 2.54, 2.25, 3.23]

Hi! Can you tell me protein stability index for each of these sequences?
1. QLLFVIFLLLYLFTLGTNAIIIST [OR10K2]
2. GMPSSLAHRIAAQTLLGTAKMLLH [PYCR3]
3. RKKRLLDRKVLLKSDSPTGDVLLD [GOLPH3L]
4. SGRRGPPPPPRSRGPPRGLRGGRG [RBMX]

1: 3.18; 2: 2.4; 3: 4.22; 4: 4.87

Hi! Can you tell me protein stability index for each of these sequences?
1. VNPFQLQQFRADPSTASLLLCPGG [TIAF1]
2. RPGPQSVPLQLSAHWQCGATLTQV [FCHO1]
3. ICKSDAPTGDVLLDEALKHVKETQ [GOLPH3]
4. WFPLHLSRILKKTVYNEMDKNRCE [EDNRA]

1. 2.93
2. 2.21
3. 4.64
4. 2.6

Hi! Can you tell me protein stability index for each of these sequences?
1. QNECQVLKLLNHPNVIEYYENFLE [NEK8]
2. LRRSVEKYNSARADFEQKMLDSAL [FCHO1]
3. LKPTFTKQQIANLDKQAKLSRAYD [USP39]
4. ASEEGSESEGSESSGRSCRNERSI [SMG5]
5. PDEAARARLLQEGGGGVAAVVVLD [DUSP5]
6. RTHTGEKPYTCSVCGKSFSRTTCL [ZNF8]

2.56
3.29
3.61
5.54
4.3
2.92

* * *

experiment: protein stability index of a GFP-peptide fusion (GPS, HEK-293T) (PSI 1-6); higher = more stable; conditions: treatment: MLN4924 1 uM, 8 h; c terminus: a fixed tail appended
ENDPOINT: protein stability index
Numbers only.

Solved entries (count: 4):
INSERT INTO measurements (primary_sequence, measured) VALUES
  ('EPSIAPTSCAGNLPSRPPPLLSPL [RSPH3]', 3.83),
  ('HPFFDTAEPDMDDPAYIAVLVLIF [INTS4]', 2.66),
  ('AADVWSLGVALFTMLAGHYPFQDS [TRIB3]', 2.94),
  ('WFPLHLSRILKKTVYNEMDKNRCE [EDNRA]', 1.98);

Hi! Can you tell me protein stability index for each of these sequences?
1. LLLGLKDREGYTSFWNDCISSGLR [GOLPH3]
2. RMEGSQEVVNMAVIVPKEEGVISV [WDFY2]
3. RDANGWTLLHFSAARGKERCVRVF [ASB7]
4. RYSGKILKNNETLVQHGVKPQEIV [IQUB]
5. FGGVIAFSSYNKQDNNCHFDAALV [SLC6A17]
6. TPEEVIWEALNMMGLYDGMEHLIY [MAGEA10]

2.11
3.45
2.43
3.71
2.43
2.03

* * *

assay: protein stability index of a GFP-peptide fusion (GPS, HEK-293T) (PSI 1-6); higher = more stable; conditions: treatment: MLN4924 1 uM, 8 h; c terminus: a fixed tail appended
ENDPOINT: protein stability index
Answers are plain numbers.

Solved entries (count: 2):
INSERT INTO results (primary_sequence, measured) VALUES
  ('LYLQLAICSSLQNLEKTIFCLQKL [C8orf76]', 3.2),
  ('ADSFESSDSLLQSWNSQSSLLDVQ [ETS2]', 4.56);

Hi! Can you tell me protein stability index for each of these sequences?
1. GMESYQEVTVQRNCCLTLCNFSIP [ZER1]
2. TLPLTLIVILENIAVAWIYGTKKF [SLC6A17]
3. DGAEIAEKFVFFIGSKNGGKTTII [DYNC2LI1]

[2.1, 3.35, 2.05]

* * *

Task for the reader: assign each of the following sequences its reported protein stability index.
assay: protein stability index of a GFP-peptide fusion (GPS, HEK-293T) (PSI 1-6); higher = more stable; conditions: treatment: DMSO; c terminus: a fixed tail appended
Numbers only.

INSERT INTO assay_data (primary_sequence, endpoint, measured) VALUES
  ('IHPKSIDLDNYFTARRLLSQVRAL [NFE2L1]', 'protein stability index', 2.25),
  ('MEVAMVSAESSGCNSHMPYGYAAQ [KCNA4]', 'protein stability index', 2.95),
  ('LDTERPVQKRARSGPQPRLPPCLL [TRIB3]', 'protein stability index', 3.89),
  ('PSSFDPSMLLQRFSVAPHETQTQR [RNF180]', 'protein stability index', 4.12),
  ('TAQSTFNDLQDLREQILRVKDTDD [RAP1B]', 'protein stability index', 5.01);

Hi! Can you tell me protein stability index for each of these sequences?
1. WDERGRAAAYSPSEALLYALVHDH [ANKRD9]
2. EVDVQEAGAGWWVGAAYASLRRRG [TRIM14]
3. GSSASTSPAPLDTCPSSSTASSIS [DYRK1B]
4. GLLLGSHGLLGSPVRAAASSPVTT [CDC25B]
5. MATSRYEPVAEIGVGAYGTVYKAR [CDK4]
6. VDFNTLKSIGSEPHEDHVFLVANF [MATN2]

[3.02, 3.4, 5.22, 2.74, 3.2, 2.06]

* * *

test: protein stability index of a GFP-peptide fusion (GPS, HEK-293T) (PSI 1-6); higher = more stable; settings: treatment: MLN4924 1 uM, 8 h; c terminus: a fixed tail appended
ENDPOINT: protein stability index
Give bare numbers.

Solved entries (count: 5):
INSERT INTO assay_data (primary_sequence, measured) VALUES
  ('EVILGDIWKLNLQTFQWVKLPATM [KLHDC10]', 2.21),
  ('PVDSVLFYAITTLHNLLLHQEGAK [CTNNB1]', 2.71),
  ('RFFGPNAEISQPPALSQLVNLYLG [TCF25]', 2.96),
  ('KVNSKKMLGKYNTPVSYRMAKTLV [ACSBG2]', 2.05),
  ('THADMDGKRTPRGRRGWKKFYAVL [PSD2]', 2.9);

Hi! Can you tell me protein stability index for each of these sequences?
1. LGKESFYDTFHTVADMMYFCQMLA [HACD3]
2. MNHYKKTTLEIHNTEERQKRQVTH [PTPN9]
3. FAESLQCKVDCEANLTPNVGGYFV [P3H4]
4. RAEIENLHRTFDPHFLRVPCWKIT [MOG]
5. EKQLAKKEQSKELQMKLEKLREKE [FAM50A]
6. ANTIRGGGCYFGPDVTQQLLQKYN [PPEF2]
7. DPKITCKQECLITTFQDVYFVSES [TPH1]
8. FYSTSSGLANGLQLLCPWAPLSGP [VENTX]

1. 3.15
2. 4.49
3. 2.42
4. 2.42
5. 5.17
6. 2.59
7. 2.14
8. 2.54
